# tested on: Muscarinic acetylcholine receptor
# assay overview: Displacement of [3H]N-methylscopolamine from rat brain homogenate
# Assay type: tissue-based
Under this convention, met denotes IC50 strictly below 30 nM and not met denotes IC50 at or above 30 nM.

Look over these answered cases.
# molecule, tested on, class assignment
measured = [
    ("O=C1CCC(c2ccccc2)(C2CCN(Cc3ccc(I)cc3)CC2)C(=O)N1 (stereo not given)", "Muscarinic acetylcholine receptor", "met"),
    ("O=C1CCC(c2ccccc2)(C2CCN(Cc3ccc(F)cc3)CC2)C(=O)N1 (stereo not given)", "Muscarinic acetylcholine receptor", "not met"),
    ("O=C1CCC(c2ccccc2)(C2CCN(Cc3ccccc3Br)CC2)C(=O)N1 (stereo not given)", "Muscarinic acetylcholine receptor", "not met"),
]

Is it true that IC50 reported for O=C1CCC(c2ccccc2)(C2CCN(Cc3ccc(Cl)cc3)CC2)C(=O)N1 (stereo not given) is less than 30 nM?
met

Is it true that IC50 reported for O=C1CCC(c2ccccc2)(C2CCN(Cc3ccccc3F)CC2)C(=O)N1 (stereo not given) is less than 30 nM?
not met

Is it true that IC50 reported for O=C1CCC(c2ccccc2)(C2CCN(Cc3ccc(Br)cc3)CC2)C(=O)N1 (stereo not given) is less than 30 nM?
not met

Is it true that IC50 reported for O=C1CCC(c2ccccc2)(C2CCN(Cc3ccccc3)CC2)C(=O)N1 (stereo not given) [BENZETIMIDE] is less than 30 nM?
met

Is it true that IC50 reported for O=C1CCC(c2ccccc2)(C2CCN(Cc3ccccc3I)CC2)C(=O)N1 (stereo not given) is less than 30 nM?
not met

Is it true that IC50 reported for O=C1CCC(c2ccccc2)(C2CCN(Cc3cccc(I)c3)CC2)C(=O)N1 (stereo not given) is less than 30 nM?
met

Is it true that IC50 reported for O=C1CCC(c2ccccc2)(C2CCN(Cc3cccc(Cl)c3)CC2)C(=O)N1 (stereo not given) is less than 30 nM?
met

Data credit: ChEMBL document CHEMBL1124460
